Reference for the values: PubChem BioAssay (EPA / NIEHS)

Target: Nuclear receptor subfamily 1 group I member 3 (Homo sapiens) (UniProt Q14994)
Sequence (Q14994 whole entry, looked up): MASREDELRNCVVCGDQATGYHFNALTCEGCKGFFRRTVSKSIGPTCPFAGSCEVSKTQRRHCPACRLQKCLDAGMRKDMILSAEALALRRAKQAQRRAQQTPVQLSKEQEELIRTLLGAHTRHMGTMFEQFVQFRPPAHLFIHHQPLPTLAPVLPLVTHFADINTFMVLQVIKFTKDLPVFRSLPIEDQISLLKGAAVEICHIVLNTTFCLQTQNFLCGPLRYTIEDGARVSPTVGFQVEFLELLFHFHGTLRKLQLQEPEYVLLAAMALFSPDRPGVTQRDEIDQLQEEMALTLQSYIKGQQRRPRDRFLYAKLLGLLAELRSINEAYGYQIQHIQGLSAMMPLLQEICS
Assay: ATG_CAR_TRANS: Attagene TRANS-FACTORIAL HepG2 Assay for human Constitutive Androstane Receptor (CAR) (AID 2282969);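 further: activators raise reporter mRNA above DMSO so AC50 marks induction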
Settings: HepG2 Attagene TRANS-FACTORIAL CAR reporter
Results filed as inconclusive are left out. Active and inactive are the calls of the source. How the source made its calls: active means hit-call score of the fitted dose curve at least 0.9, where 1 is the maximum; inconclusive means response in the unintended direction; inactive means score below 0.9.
// classify into active, inactive

Data request: Recorded test outcome, item C=CCOC(=O)CCC1CCCCC1
Data returned: inactive

Data request: Recorded test outcome, item CCc1c(C)cc(N)c(CC)c1N
Data returned: inactive

Data request: Recorded test outcome, item O=C[C@H](O)[C@H](O)[C@H](O)CO
Data returned: inactive

###

Read-out: Vascular cell adhesion molecule 1 (VCAM1), VCAM1 (gene 7412)
Assay: BSK_hDFCGF_VCAM1: BioMAP Diversity Plus: hDFCGF Assay for Vascular cell adhesion molecule 1 (VCAM1) Biomarker Activity (AID 2283065);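 on AC50: VCAM-1 protein level quantified by ELISA after 24 h chemical exposure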
Conditions: primary human foreskin fibroblasts; actives raise or lower the signal
Method: BSK_hDFCGF is a cell-based, multiplexed-readout assay that uses foreskin fibroblast, a human skin primary cell, with measurements taken at 24 hours after chemical dosing in a 96-well plate.BSK_hDFCGF_VCAM1 is an assay component measured in the BSK_hDFCGF assay. It measures VCAM-1 antibody related to regulation of gene expression using ELISA technology.Data from the assay component BSK_hDFCGF_VCAM1 was analyzed into 1 assay endpoint. […]
Activity calls are given as the source filed them. How the source made its calls: active means hit-call score of the fitted dose curve at least 0.9, where 1 is the maximum; inactive means score below 0.9.
READOUT_LABEL: AC50

Nc1cc([N+](=O)[O-])ccc1Cl: inactive
COc1cc(C=O)ccc1OC(=O)C(C)C: inactive
OC[C@H]1O[C@H](O[C@]2(CCl)O[C@H](CCl)[C@@H](O)[C@@H]2O)[C@H](O)[C@@H](O)[C@H]1Cl: inactive
OC1OC[C@@H](O)[C@H](O)[C@H]1O (stereo partly drawn): inactive
CC(C)Oc1ccccc1O: inactive

Data request: For the compound shown here, CC(=O)O[C@]1(C(C)=O)CC[C@H]2[C@@H]3C[C@H](C)C4=CC(=O)CC[C@]4(C)[C@H]3CC[C@@]21C , give the reported AC50.
Data returned: inactive

Data request: For the compound shown here, CN(CCOc1ccc(CC2SC(=O)NC2=O)cc1)c1ccccn1 (stereo not drawn) , give the reported AC50.
Data returned: inactive

Data request: For the compound shown here, CCc1c(C)cc(N)c(CC)c1N , give the reported AC50.
Data returned: inactive

Data request: For the compound shown here, O=C1OC2(c3cc(Br)c(O)c(Br)c3Oc3c2cc(Br)c(O)c3Br)c2c(Cl)c(Cl)c(Cl)c(Cl)c21 , give the reported AC50.
Data returned: 4.38 µM (active)

###

Assay: ATG_DR4_LXR_CIS: Attagene CIS-FACTORIAL HepG2 Assay for human Liver X Receptor (LXR), DR4 submotif (AID 2282929)
Details: HepG2 Attagene DR4 cis-reporter, mRNA transcription; actives raise or lower the signal
Calls of active or inactive are those of the source. How the source made its calls: active means hit-call score of the fitted dose curve at least 0.9, where 1 is the maximum; inactive means score below 0.9.
// classify into active, inactive

The examples below pair each entry with its known result.
c1ccc2c(c1)c1cccc3ccc4cccc2c4c31: inactive
CC[C@]12CCCN3CCc4c(n(c5ccccc45)[C@@](O)(C(=O)OC)C1)[C@@H]32: inactive

Data request: Recorded test outcome, item OCc1cccnc1
Data returned: inactive

###

Read-out: Collagen IV, COL4A1 (gene 1282)
Experiment: BSK_MyoF_CollagenIV: BioMAP Diversity Plus: MyoF Assay for Collagen IV Biomarker Activity (AID 2284247)
Settings: primary human lung fibroblasts
The source made the active and inactive calls. How the source made its calls: active means hit-call score of the fitted dose curve at least 0.9, where 1 is the maximum; inactive means score below 0.9.
// classify into active, inactive

Cc1ccc2n[nH]nc2c1: inactive
O=[N+]([O-])c1cc(C(F)(F)F)ccc1Cl: inactive
C=C(C)C(=O)O[C@H]1C[C@@H]2CC[C@@]1(C)C2(C)C: active
CCn1c2ccccc2c2cc(N)ccc21: inactive
Nc1cc([N+](=O)[O-])ccc1Cl: inactive

Data request: Recorded test outcome, item O=P(c1ccccc1)(c1ccccc1)c1ccccc1
Data returned: inactive

Data request: Recorded test outcome, item Cc1ccc(Nc2ccc(O)c3c2C(=O)c2ccccc2C3=O)cc1
Data returned: inactive

###

Assay: ATG_PXRE_CIS: Attagene CIS-FACTORIAL HepG2 Assay for human Pregnane X Receptor Element (PXRE) (AID 2282957)
Settings: HepG2 Attagene CIS-FACTORIAL PXRE reporter, mRNA; actives raise or lower the signal
Activity calls are given as the source filed them. The calls were made as follows: active = hit-call score of the fitted dose curve at least 0.9, where 1 is the maximum; inactive = score below 0.9.
// classify into active, inactive

The examples below pair each entry with its known result.
CCCCC[Si](OCC)(OCC)OCC: active
CCOc1ccccc1OCC: active
C=CC(=O)OCC(O)COc1ccccc1 (stereo not drawn): inactive
CC(C)=CCCC(C)CC=O (stereo not drawn): inactive
ClCCCl: inactive

Data request: Recorded test outcome, item Nc1cc(N)cc(C(=O)O)c1
Data returned: inactive

Data request: Recorded test outcome, item CCCCCCC#CC(=O)OC
Data returned: active

Data request: Recorded test outcome, item CC[Si](OC(C)=O)(OC(C)=O)OC(C)=O
Data returned: active

###

Biological target: Myc proto-oncogene protein (Homo sapiens) (UniProt P01106)
Sequence (P01106 whole entry, looked up): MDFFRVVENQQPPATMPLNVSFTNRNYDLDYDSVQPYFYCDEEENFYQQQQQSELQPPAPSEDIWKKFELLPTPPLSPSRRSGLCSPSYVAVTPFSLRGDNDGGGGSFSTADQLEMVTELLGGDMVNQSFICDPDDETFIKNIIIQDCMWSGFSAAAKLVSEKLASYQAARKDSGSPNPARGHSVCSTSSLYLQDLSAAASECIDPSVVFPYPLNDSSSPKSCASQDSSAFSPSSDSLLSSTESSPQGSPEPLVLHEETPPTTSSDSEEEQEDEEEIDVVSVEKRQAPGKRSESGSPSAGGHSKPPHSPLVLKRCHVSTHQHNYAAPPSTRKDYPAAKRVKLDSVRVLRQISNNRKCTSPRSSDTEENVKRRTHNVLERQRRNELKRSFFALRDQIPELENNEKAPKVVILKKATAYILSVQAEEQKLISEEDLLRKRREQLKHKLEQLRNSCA
Test: ATG_Myc_CIS: Attagene CIS-FACTORIAL HepG2 Assay for human Myelocytomatosis (Myc) Proto-Oncogene Transcription Factor (AID 2282990)
Conditions: HepG2, Attagene cis-reporter transcription factor activity; actives raise or lower the signal
Activity calls are given as the source filed them. How the source made its calls: active means hit-call score of the fitted dose curve at least 0.9, where 1 is the maximum; inactive means score below 0.9.
// classify into y = active, n = inactive

The examples below pair each entry with its known result.
CC1(C)[C@H]2CC[C@]1(C)[C@H](O)C2: n
CCCCCCCCCOC(C)=O: n
COc1cc2ncnc(Nc3cccc(Cl)c3)c2cc1OC: n
COc1ccc(NC(=O)CC(C)=O)cc1: n
CC1CCC(C(C)CS)CC1S (configuration not stated): y

Data request: Recorded test outcome, item CC(C)C1CCC(O)CC1 (configuration not stated)
Data returned: n

Data request: Recorded test outcome, item CO[Si](CCCn1c(=O)n(CCC[Si](OC)(OC)OC)c(=O)n(CCC[Si](OC)(OC)OC)c1=O)(OC)OC
Data returned: n

###

Assay: ATG_PBREM_CIS: Attagene CIS-FACTORIAL HepG2 Assay for human Phenobarbital-responsive Enhancer Module (PBREM) (AID 2282955)
Conditions: HepG2 PBREM cis-reporter, Attagene multiplexed transcription; actives raise or lower the signal
Calls of active or inactive are those of the source. The calls were made as follows: active = hit-call score of the fitted dose curve at least 0.9, where 1 is the maximum; inactive = score below 0.9.
// classify into y = active, n = inactive

The examples below pair each entry with its known result.
COCCOCCOCCOCCOCCO: n
N#Cc1nc(Cl)c(Cl)c(Cl)c1Cl: n
Cc1ccc2ccccc2n1: n

Data request: Recorded test outcome, item CC(C)OP(=O)(CP(=O)(OC(C)C)OC(C)C)OC(C)C
Data returned: n

Data request: Recorded test outcome, item CCCCCCCCCCCCN(CCCCCCCCCCCC)CCCCCCCCCCCC
Data returned: n

Data request: Recorded test outcome, item C#C[C@]1(O)CC[C@H]2[C@@H]3CCC4=Cc5oncc5C[C@]4(C)[C@H]3CC[C@@]21C
Data returned: y

###

Target: Nuclear receptor subfamily 1 group I member 2 (Homo sapiens) (UniProt O75469)
Sequence (O75469 whole entry, looked up): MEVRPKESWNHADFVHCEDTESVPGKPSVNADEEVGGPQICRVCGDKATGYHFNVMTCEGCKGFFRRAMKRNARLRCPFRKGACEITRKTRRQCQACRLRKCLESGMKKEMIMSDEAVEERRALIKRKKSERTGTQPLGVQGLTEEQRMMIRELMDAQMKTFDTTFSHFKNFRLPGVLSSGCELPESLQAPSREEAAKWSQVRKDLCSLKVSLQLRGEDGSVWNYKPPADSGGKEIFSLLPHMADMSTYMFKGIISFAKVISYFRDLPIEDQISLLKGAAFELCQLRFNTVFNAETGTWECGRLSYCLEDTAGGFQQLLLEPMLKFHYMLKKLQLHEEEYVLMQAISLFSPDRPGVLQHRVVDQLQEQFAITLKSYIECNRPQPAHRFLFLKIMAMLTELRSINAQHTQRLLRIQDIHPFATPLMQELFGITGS
Assay: ATG_PXR_TRANS: Attagene TRANS-FACTORIAL HepG2 Assay for human Pregnane X Receptor (PXR) (AID 2283008)
Inconclusive results are not listed. Activity calls are given as the source filed them. The calls were made as follows: active = hit-call score of the fitted dose curve at least 0.9, where 1 is the maximum; inconclusive = response in the unintended direction; inactive = score below 0.9.
// classify into 1 (active), -1 (inactive)

The examples below pair each entry with its known result.
COC(C(=O)O)c1ccccc1 (stereo not drawn): -1
CC(O)C(C)O (stereo not drawn): -1
CCC(=O)OCCC(C)CCC=C(C)C (stereo not drawn): -1
c1ccc2sc(SN(C3CCCCC3)C3CCCCC3)nc2c1: 1
O=C1CCc2ccccc2O1: -1

Data request: Recorded test outcome, item CSc1nnc(C(C)(C)C)c(=O)[nH]1
Data returned: -1

Data request: Recorded test outcome, item NC(=O)Nc1ccc(Cl)cc1
Data returned: -1

Data request: Recorded test outcome, item COC(=O)OC
Data returned: -1

###

Test: ATG_TGFb_CIS: Attagene CIS-FACTORIAL HepG2 Assay for human Transforming Growth Factor (TGF) (AID 2282967)
Conditions: HepG2 Attagene CIS TGFb reporter, mRNA transcription; actives raise or lower the signal
The source made the active and inactive calls. How the source made its calls: active means hit-call score of the fitted dose curve at least 0.9, where 1 is the maximum; inactive means score below 0.9.
// classify into true = active, false = inactive

The examples below pair each entry with its known result.
ClCCCl: false
O=[N+]([O-])c1ccc(C=Cc2ccc([N+](=O)[O-])cc2S(=O)(=O)O)c(S(=O)(=O)O)c1: false
O=C1c2ccccc2C(=O)N1SC1CCCCC1: true

Now, please, on to the next compound.
Data request: Recorded test outcome, item O=Nc1ccc(Nc2ccccc2)cc1
Data returned: false

###

Assay: TOX21_p53_BLA_p5_viability: Viability Assessment in the Tox21 HCT-116 p53 Agonism Beta-lactamase Assay, Phase 5 (AID 2283600)
Records with an inconclusive call do not appear. Calls of active or inactive are those of the source. The calls were made as follows: active = hit-call score of the fitted dose curve at least 0.9, where 1 is the maximum; inconclusive = response in the unintended direction; inactive = score below 0.9.
// classify into active, inactive

The examples below pair each entry with its known result.
COC(=O)Cc1cccc2ccccc12: inactive
COc1ccc(NC(=O)CC(C)=O)cc1: inactive

Data request: Recorded test outcome, item Cc1ccc(S)cc1
Data returned: inactive

Data request: Recorded test outcome, item CC[Si](OC(C)=O)(OC(C)=O)OC(C)=O
Data returned: inactive
